Measured pKi accompanies every entry in the list below.
TARGET DESC: recombinant human 5-HT5A receptor (Homo sapiens)
Construct: membranes
Sequence (P47898 whole entry): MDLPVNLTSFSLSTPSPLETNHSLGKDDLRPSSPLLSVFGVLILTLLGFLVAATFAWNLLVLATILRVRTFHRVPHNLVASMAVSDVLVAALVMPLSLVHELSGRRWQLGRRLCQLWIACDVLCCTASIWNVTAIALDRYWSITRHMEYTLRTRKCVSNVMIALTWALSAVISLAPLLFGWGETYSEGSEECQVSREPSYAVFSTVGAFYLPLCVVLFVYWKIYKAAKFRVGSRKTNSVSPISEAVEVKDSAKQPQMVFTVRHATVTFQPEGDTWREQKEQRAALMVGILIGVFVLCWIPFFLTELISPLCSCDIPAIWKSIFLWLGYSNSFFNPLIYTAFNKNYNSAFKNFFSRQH
TEST PROTOCOL: [3H]LSD radioligand binding assay, membranes of HEK-EBNA cells transiently expressing the receptor
CONDITION CONTEXT: [3H]LSD approx. 1 nM, 120 min room temperature, Ki from IC50 by Cheng-Prussoff equation, read-out: Ki (affinity towards the human 5-HT5A receptor)
Please express pKi as -log10 of the molar concentration.

Recorded pKi, per entry:
[
  {
    "MOLECULE": "Cc1ccc(CNc2cc(N)c3cc(NCc4cccnc4)ccc3n2)o1 [Example 54]",
    "RESULT TYPE": "pKi",
    "EXPERIMENTAL VALUE": 7.66
  },
  {
    "MOLECULE": "COc1ccccc1CNc1ccc2cc(NCc3cccnc3)ccc2n1 [Example 6]",
    "RESULT TYPE": "pKi",
    "EXPERIMENTAL VALUE": 7.57
  },
  {
    "MOLECULE": "COc1ccccc1CNc1ccc2cc(NCc3ccccc3OC(F)(F)F)ccc2n1 [Example 17]",
    "RESULT TYPE": "pKi",
    "EXPERIMENTAL VALUE": 7.60
  },
  {
    "MOLECULE": "COc1ccccc1CNc1ccc2nc(NCCOc3ccccc3)ccc2c1 [Example 9]",
    "RESULT TYPE": "pKi",
    "EXPERIMENTAL VALUE": 7.59
  },
  {
    "MOLECULE": "COc1ccccc1CNc1ccc2cc(Nc3cccc(CCO)c3)ccc2n1 [Example 103]",
    "RESULT TYPE": "pKi",
    "EXPERIMENTAL VALUE": 7.60
  },
  {
    "MOLECULE": "COc1ccccc1CNc1ccc2cc(Nc3nccc(C)n3)ccc2n1 [Example 90]",
    "RESULT TYPE": "pKi",
    "EXPERIMENTAL VALUE": 7.48
  },
  {
    "MOLECULE": "COc1cc(F)ccc1CNc1cc(-c2ccccc2)c2cc(NCc3ccncc3)ccc2n1 [Example 37]",
    "RESULT TYPE": "pKi",
    "EXPERIMENTAL VALUE": 7.40
  },
  {
    "MOLECULE": "COc1ccccc1CNc1cc(-c2ccccc2C)c2cc(NCc3cccnc3)ccc2n1 [Example 32]",
    "RESULT TYPE": "pKi",
    "EXPERIMENTAL VALUE": 7.92
  },
  {
    "MOLECULE": "COc1ccccc1CNc1ccc2nc(NCc3ccc(C)o3)ccc2c1 [Example 27]",
    "RESULT TYPE": "pKi",
    "EXPERIMENTAL VALUE": 7.52
  },
  {
    "MOLECULE": "COc1ccccc1CNc1cc(N)c2cc(NCc3cccnc3)ccc2n1 [Example 51]",
    "RESULT TYPE": "pKi",
    "EXPERIMENTAL VALUE": 7.82
  }
]

What does the data say about its pKi? Entry: COc1ccccc1CNc1ccc2cc(NCCCn3ccnc3)ccc2n1 [Example 23] 6.89

Hey, just so you know, these numbers are from patent US8399674B2.
